Biological target: T1, O4-bS
T1 chain: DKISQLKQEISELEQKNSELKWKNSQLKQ
Experiment: two-hybrid library CCNG1;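 note: natural log of median RNA to DNA barcode read ratio; higher means stronger binding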
readout.kind: interaction score

DKIQQLEQKNQELKQEIQELEWKNQELEQ [4H2503-bN] : -1.2

a. DKNSQLKQENSELEQEISELEWEISQLEQ [O1-bS]
b. DEISQLEQKISELKQKNSELKWKNSQLKQ [O12-bS]
c. DEISQLEQENSELEQKISELKWENSQLEQ [O15-bS]
d. DEISQLEQKISELKQENSELEWENSQLEQ [O3-bS]
e. DKISQLKQEISELEQKNSELKWKNSQLKQ [O4-bS]
Exercise: Please give the order of these binders when sorted by interaction score, largest value leading. Dear reader, please state the labels in the requested order.
Solution: d, b, c, e, a
(d: 2.28, b: -0.445, c: -0.754, e: -1.26, a: -1.85)

1. DKNSQLKQENSELEQKISELKWKISQLKQ [O10-bS]
2. DKNSQLKQKISELKQKNSELKWEISQLEQ [O13-bS]
3. DKISQLKQEISELEQENSELEWENSQLEQ [O11-bS]
4. DKISQLKQKNSELKQEISELEWKNSQLKQ [O16-bS]
5. DENSQLEQEISELEQENSELEWKISQLKQ [O14-bS]
Exercise: Please give the order of these binders when sorted by interaction score, largest value leading. Dear reader, please state the labels in the requested order.
Solution: 3, 5, 4, 1, 2
